Below, each entry is listed alongside its reported hemolysis at 40 min, 12 µM.
assay: Toxicity in human erythrocytes assessed as hemolysis at 12 uM after 40 mins; type: cell-based, Erythrocyte; conditions: read-out: Activity
Where a SMILES comes first, the peptide text is derived from it.

molecule: CC[C@H](C)[C@H](NC(=O)[C@H](CCCNC(=N)N)NC(=O)CNC(=O)[C@H](CC(C)C)NC(=O)[C@H](Cc1ccccc1)NC(=O)[C@H](CCCCN)NC(=O)[C@H](CO)NC(=O)[C@H](Cc1ccccc1)NC(=O)[C@H](Cc1c[nH]c2ccccc12)NC(=O)[C@H](CCCNC(=N)N)NC(=O)[C@@H](NC(=O)[C@@H](N)Cc1ccccc1)C(C)C)C(=O)N[C@@H](CC(C)C)C(N)=O (H-FVRWFSKFLGRIL-NH2)
hemolysis at 40 min, 12 µM: 100%
--
molecule: CC[C@H](C)[C@H](NC(=O)[C@H](CCCNC(=N)N)NC(=O)[C@@H]1CCCN1C(=O)[C@H](CC(C)C)NC(=O)[C@H](Cc1ccccc1)NC(=O)[C@H](CCCCN)NC(=O)[C@H](CO)NC(=O)[C@H](Cc1ccccc1)NC(=O)[C@H](Cc1c[nH]c2ccccc12)NC(=O)[C@@H]1CCCN1C(=O)[C@@H](NC(=O)[C@@H](N)Cc1ccccc1)C(C)C)C(=O)N[C@@H](CC(C)C)C(N)=O
hemolysis at 40 min, 12 µM: 5%
--
molecule: CC(C)C[C@H](NC(=O)[C@H](CC(C)C)NC(=O)[C@H](CCCNC(=N)N)NC(=O)CNC(=O)[C@H](CC(C)C)NC(=O)[C@H](CC(C)C)NC(=O)[C@H](CCCCN)NC(=O)[C@H](CO)NC(=O)[C@H](CC(C)C)NC(=O)[C@H](Cc1c[nH]c2ccccc12)NC(=O)[C@H](CCC(N)=O)NC(=O)[C@H](CC(C)C)NC(=O)[C@@H](N)CC(C)C)C(N)=O (H-LLQWLSKLLGRLL-NH2)
hemolysis at 40 min, 12 µM: 73%
